cell viability: recorded values
test system: Vero E6; experiment: cell viability relative to DMSO; higher = less toxic; conditions: 72 h; 1000 nM
Give your result in % as a bare value.

MOLECULE: Oc1ccc2c3c1O[C@H]1c4[nH]c5c(c4C[C@@]4(O)[C@@H](C2)N(CC2CC2)CC[C@]314)C[C@@]1(O)[C@H]2Cc3ccc(O)c4c3[C@@]1(CCN2CC1CC1)[C@H]5O4
cell viability (%): 95.7

MOLECULE: CN(C)C(=O)Oc1cccc([N+](C)(C)C)c1
cell viability (%): 94.8

MOLECULE: Cc1cc(Nc2nc(N[C@@H](C)c3ncc(F)cn3)ncc2Cl)[nH]n1
cell viability (%): 100

Write cell viability of Nc1nc(=O)c(Br)c(-c2ccccc2)[nH]1 ; system used: Vero E6
98.7

Write cell viability of O=C(O[C@H]1[C@H](OC(=O)c2cccnc2)[C@@H](OC(=O)c2cccnc2)[C@H](OC(=O)c2cccnc2)[C@@H](OC(=O)c2cccnc2)[C@H]1OC(=O)c1cccnc1)c1cccnc1 [inositol-hexanicotinate] ; system used: Vero E6
93.7

Write cell viability of O=C(Nc1cnn2ccc(N3CCC[C@@H]3c3cc(F)ccc3F)nc12)N1CC[C@H](O)C1 ; system used: Vero E6
105

Write cell viability of O=c1c(O)c(-c2ccc(O)cc2)oc2cc(O)cc(O)c12 ; system used: Vero E6
102

###

cell viability: recorded values
system: Calu-3; assay: cell viability relative to DMSO; higher = less toxic; settings: 72 h; 100 nM
Where a name gives a salt, the structure may show the parent alone.
Give your result in % as a bare value.

COMPOUND: O=C(Nc1cnn2ccc(N3CCC[C@@H]3c3cc(F)ccc3F)nc12)N1CC[C@H](O)C1
cell viability, %: 94.9
//
COMPOUND: CCC1=C[C@@H]2CN(C1)Cc1c([nH]c3ccccc13)[C@@](C(=O)OC)(c1cc3c(cc1OC)N(C)[C@H]1[C@@](O)(C(=O)OC)[C@H](OC(C)=O)[C@]4(CC)C=CCN5CC[C@]31[C@@H]54)C2
cell viability, %: 72.2
//
COMPOUND: C[C@H](N)Cc1c[nH]cn1 [alpha-methylhistamine-dihydrobromide-(S)-(+)]
cell viability, %: 98.2
//
COMPOUND: COc1ccc([C@]2(C#N)CC[C@@H](C(=O)O)CC2)cc1OC1CCCC1
cell viability, %: 102

Specify cell viability for CO/N=C1\C[C@]2(C[C@@H]3C[C@@H](C/C=C(\C)C[C@@H](C)/C=C/C=C4\CO[C@@H]5[C@H](O)C(C)=C[C@@H](C(=O)O3)[C@]45O)O2)O[C@H](/C(C)=C/C(C)C)[C@H]1C and stop.
94.2

Specify cell viability for C=C[C@@H]1C[C@]1(NC(=O)[C@@H]1C[C@@H](Oc2ncc(OC)c3ccc(Cl)cc23)CN1C(=O)[C@@H](NC(=O)OC(C)(C)C)C(C)(C)C)C(=O)NS(=O)(=O)C1CC1 and stop.
104

Specify cell viability for Cn1nc(C(C)(C)C)cc1C(=O)N[C@@H](Cc1cccc(Cl)c1)C(=O)NCC#N and stop.
105

Specify cell viability for O=C(O)CCNc1cc(N2CCc3ccccc3CC2)nc(-c2ccccn2)n1 and stop.
97.9

Specify cell viability for Cc1ccc2c(Cl)cc(Cl)c(O)c2n1 and stop.
84.2

Specify cell viability for COc1cc(C(=S)N2CCOCC2)ccc1O [vanitiolide] and stop.
99.1

Specify cell viability for COc1ccc(S(=O)(=O)N2CCCN(S(=O)(=O)c3ccc(OC)c(OC)c3)CC2)cc1OC and stop.
102

Specify cell viability for COc1cc2c(=O)c(-c3ccc(O)cc3)coc2cc1O and stop.
101

Specify cell viability for CCCCOc1cc(C(=O)NCCN(CC)CC)c2ccccc2n1 and stop.
97.4

Specify cell viability for c1cn2cc(-c3ccc4cn[nH]c4c3)nc(Nc3ccc(N4CCOCC4)cc3)c2n1 and stop.
90

Specify cell viability for Cc1ccc(-c2ncc[nH]2)cc1NC(=O)c1ccc(OCc2ccccn2)cc1 and stop.
96.6

Specify cell viability for CC(C)(C)Sc1c(CC(C)(C)C(=O)O)n(Cc2ccc(Cl)cc2)c2ccc(OCc3ccc4ccccc4n3)cc12 and stop.
98.7

Specify cell viability for CCC1(c2ccccc2)C(=O)N(COC)C(=O)N(COC)C1=O and stop.
110

Specify cell viability for CN(C)CCCCSC(=N)N and stop.
89

Source: the supplement of paper PMC13380429
